// provenance: patent US20240247080A1

targetOrTestSystem: T1, human neuropeptide Y2 (NPY2) receptor (human, UniProt P49146 1-381)
T1 sequence (looked up): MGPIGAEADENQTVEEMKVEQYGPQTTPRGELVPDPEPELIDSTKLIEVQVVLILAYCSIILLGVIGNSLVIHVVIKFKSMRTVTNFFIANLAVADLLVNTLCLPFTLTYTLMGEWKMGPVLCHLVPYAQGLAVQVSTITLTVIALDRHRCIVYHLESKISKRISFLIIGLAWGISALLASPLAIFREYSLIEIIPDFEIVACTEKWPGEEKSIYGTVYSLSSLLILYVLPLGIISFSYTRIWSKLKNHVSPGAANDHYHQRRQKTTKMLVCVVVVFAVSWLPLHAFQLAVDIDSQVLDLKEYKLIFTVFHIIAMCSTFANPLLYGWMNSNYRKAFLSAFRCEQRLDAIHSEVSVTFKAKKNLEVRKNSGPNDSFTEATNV
methodNotes: cell-based or functional assay
Starred links: 1 amine or outer side, 2 acyl side, 3 side chain; linkers in the order of their positions; H or OH if unused. Non-standard residues stand in square brackets, D forms with d. Groups on a side chain read outwards from the residue. No end group written: not given here. *: point of attachment. C18 diacid = O=C(O)CCCCCCCCCCCCCCCCC(=O)*; γGlu = O=C(O)[C@H](CCC(=O)[*:2])N[*:1]; AEEA = NCCOCCOCC(=O)O; Aib = CC(C)(N)C(=O)O
# EC50, CreLuc assay, 0.5% hP annotations
The figure you give is taken to be in nM; do not add the unit.

I would be grateful if you could share the reported EC50, CreLuc assay, 0.5% hP for Y[Aib]EGTFTSDYSI[Aib]LEKQAQ[Aib]AFVQWLIK([AEEA-AEEA-γGlu-γGlu-γGlu-γGlu-C18 diacid])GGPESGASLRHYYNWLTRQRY-NH2 (also: TFA salt) [Compound 58] .
10.2

# get_value(readout='EC50, CreLuc assay, 0.5% hP', item= Y[Aib]EGTFTSDYSI[Aib]LEKQAQ[Aib]AFVQWLIKGGPSYYASLRHYYNWLTRQRY-NH2 (not fully specified (residue 28); also: TFA salt) [Compound 59] )
10.8

Suppose we examine the binder YXEGTFTSDYSIXLEKQAQXAFVEWLIKGGPSSGADLRHYLNWLTRQRY (Aib at 2, 13, 20; K28 side chain: C20DA-gGlu-gGlu-gGlu-gGlu-gGlu-gGlu-eLys; C-terminal NH2) [Compound 72] ; what EC50, CreLuc assay, 0.5% hP value has been reported?
29.1

Others:
Which EC50, CreLuc assay, 0.5% hP value belongs to Y[Aib]EGTFTSDYSI[Aib]LEKQAE[Aib]AFVQWLIKGGPSEPASLRHYYNWLTRQRY-NH2 (not fully specified (residue 28); also: TFA salt) [Compound 54] ?
14
